meta.source: patent US12065443B2

# Tested on: LPS triggered IL-10 secretion in monocyte-derived macrophages (MdM)
# Method Notes: MdM assay: LPS-triggered IL-10 (ELISA)
# Assay type: cell-based, human
# Condition Info: maximal fold change vs LPS only, median across assays
Readout Type: IL-10 FCmax median

# Compound, Val
records = [
    ("COc1cc(-c2cnc3cc(-c4cnn(C)c4)ccn23)cc(OC)c1C(=O)N1CC(C#N)C1", "++ (>1.5-4.5)"),
    ("COc1cc(-n2cnc3cc(-c4cnn(C)c4)ccc32)cc(OC)c1C(=O)N1CC(F)(F)C1", "++ (>1.5-4.5)"),
    ("CCn1cc(-c2ccc3c(c2)ncn3-c2cc(OC)c(C(=O)NCCF)c(OC)c2)cn1", "++ (>1.5-4.5)"),
    ("COc1cc(-n2cnc3cc(-c4cnn(CCN5CCOCC5)c4)ccc32)cc(OC(F)F)c1C(=O)NC1CC1", "++ (>1.5-4.5)"),
    ("COCCn1cc(-c2ccc3c(c2)ncn3-c2cc(OC)c(C(=O)NCC(F)(F)F)c(OC)c2)cn1", "++ (>1.5-4.5)"),
]

Enquiry: Enter reported IL-10 FCmax median observed with LPS triggered IL-10 secretion in monocyte-derived macrophages (MdM) for COc1cc(-n2cnc3cc(-c4cnn(C5CCN(C)CC5)c4)ccc32)cc(OC)c1C(=O)NCC(F)(F)F
Return: ++ (>1.5-4.5)

Enquiry: Enter reported IL-10 FCmax median observed with LPS triggered IL-10 secretion in monocyte-derived macrophages (MdM) for COc1cc(-n2cnc3cc(-c4cnn(CCO)c4)ccc32)cc(OC)c1C(=O)NCC(F)(F)F
Return: ++ (>1.5-4.5)

Enquiry: Enter reported IL-10 FCmax median observed with LPS triggered IL-10 secretion in monocyte-derived macrophages (MdM) for COc1cc(-n2cnc3cc(-c4cnn(C)c4)ccc32)cc(OC)c1C(=O)NCC(F)(F)F
Return: ++ (>1.5-4.5)
